Attribution: patent US20250262201A1

This section presents molecules with their documented AC50 values.
Molecular target: human PAH with the R408W mutation (Homo sapiens, UniProt P00439, R408W)
Construct: expressed in transfected cells
Sequence (P00439 1-452 R408W): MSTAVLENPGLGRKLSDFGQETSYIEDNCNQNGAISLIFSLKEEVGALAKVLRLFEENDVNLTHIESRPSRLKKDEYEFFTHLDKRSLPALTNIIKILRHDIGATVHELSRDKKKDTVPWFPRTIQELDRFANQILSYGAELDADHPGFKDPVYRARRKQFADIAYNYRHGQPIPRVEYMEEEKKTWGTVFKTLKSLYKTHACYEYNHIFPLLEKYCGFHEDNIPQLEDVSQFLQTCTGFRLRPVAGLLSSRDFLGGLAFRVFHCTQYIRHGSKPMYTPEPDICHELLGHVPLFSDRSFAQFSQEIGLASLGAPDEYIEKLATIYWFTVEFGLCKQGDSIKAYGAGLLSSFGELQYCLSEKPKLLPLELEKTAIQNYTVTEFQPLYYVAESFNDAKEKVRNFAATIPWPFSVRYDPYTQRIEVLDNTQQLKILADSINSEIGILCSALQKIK
Assay: Cell Based Phenylalanine Flux Assay
Conditions: A375 cells expressing human R408W PAH; 24 hrs compound incubation; 13C-Tyrosine by LC-MS; average where tested multiple times; read-out: AC50

Solved cases below.
Molecule: O=C(c1nnc(-c2ccn(C(F)F)n2)o1)N1CCc2[nH]cnc2[C@@H]1c1ncc2ccccc2n1
AC50: 1000 to 5000 nM
//
Molecule: O=C(c1cn[nH]c1C(F)F)N1CCc2[nH]cnc2C1c1ccc2ccccc2n1 (stereo in doubt)
AC50: < 500 nM
//
Molecule: COCCc1ccc2c(C(=O)N3CCc4[nH]cnc4[C@H]3c3cc4ccccc4cn3)cnn2c1
AC50: < 500 nM
//
Molecule: CC(C)(C)c1ncc(C(=O)N2CCc3[nH]cnc3C2c2ccc3ccccc3n2)s1 (stereo in doubt) [Example 4]
AC50: > 5000 nM
//
Molecule: CC(C)(F)c1ncc(C(=O)N2CCc3[nH]cnc3C2c2ccc3ccccc3n2)s1 (stereo in doubt) [Example 15]
AC50: 500 to 1000 nM

Exercise: What value of measured AC50 is listed for `N#Cc1ncoc1C(=O)N1CCc2[nH]cnc2[C@@H]1c1ncc2ccccc2n1` ?
Key: 1000 to 5000 nM

Exercise: # query: AC50 of entry `C[C@H]1CN(C(=O)c2cnc(-c3ccccn3)o2)[C@@H](c2cc3ccccc3cn2)c2nc[nH]c21`
Key: > 5000 nM

###

// AC50 lookup, one value per entry
molecular target: human PAH with the R408W mutation (Homo sapiens, UniProt P00439, R408W); construct: expressed in transfected cells; assay: Cell Based Phenylalanine Flux Assay; conditions: A375 R408W cells, 24 hrs with compound, then 20 μM sepiapterin and 800 μM 13C9,15N-Phenylalanine for 4 hours; 13C-Tyrosine by LC-MS; average where tested multiple times; read-out: AC50

These recorded examples may help you get a feel for the data.
Compound: CC1CN(C(=O)c2nnc(N(C)C)o2)C(c2cc3ccccc3cn2)c2nc[nH]c21 (centres unmarked)
Result: > 5 µM

Compound: CN(C)Cc1nnc(C(=O)N2CCc3[nH]cnc3C2c2ccc3ccccc3n2)o1 (centres unmarked)
Result: > 5 µM

Compound: CC(C)(O)c1cc(C(=O)N2CCc3[nH]cnc3[C@H]2c2cc3ccccc3cn2)on1
Result: 1 to 5 µM

Compound: Cn1ccc(C(=O)N2CCc3[nH]cnc3C2c2ccc3ccccc3n2)n1 (centres unmarked)
Result: 1 to 5 µM

Attention now shifts to the item below.
Exercise: Which AC50 value belongs to N#Cc1ncoc1C(=O)N1CCc2[nH]cnc2C1c1cn2ccccc2n1 (centres unmarked) ?
Key: > 5 µM

###

Measured AC50, listed per entry.
target: human PAH with the R408W mutation (Homo sapiens, UniProt P00439, R408W); construct: expressed in transfected cells; test: Cell Based Phenylalanine Flux Assay; details: A375 R408W cells, 24 hrs with compound, then 20 μM sepiapterin and 800 μM 13C9,15N-Phenylalanine for 4 hours; 13C-Tyrosine by LC-MS; average where tested multiple times; read-out: AC50

Compound: Cn1cc(-c2nnc(C(=O)N3CCc4[nH]cnc4C3c3cc4ccccc4nn3)o2)cn1 (centres unmarked)
Result: 1 to 5 µM

Compound: CC1CN(C(=O)c2nnc(N(C)C)o2)C(c2cc3ccccc3cn2)c2nc[nH]c21 (centres unmarked)
Result: 1 to 5 µM

Compound: CC1CN(C(=O)c2cnn3cc(CN(C)C)ccc23)C(c2cc3ccccc3cn2)c2nc[nH]c21 (centres unmarked)
Result: 1 to 5 µM

Exercise: Entry under review: Cc1ncoc1C(=O)N1CC2(CC2)c2[nH]cnc2C1c1ccc2ccccc2n1 (centres unmarked) . Reported AC50?
Key: 1 to 5 µM

Exercise: Data request, read-out AC50, for C[C@H]1CN(C(=O)c2nnc(N3CC(F)C3)o2)[C@H](c2cc3ccccc3cn2)c2nc[nH]c21 (single isomer, unassigned)
Key: 1 to 5 µM

Exercise: Given the compound O=C(c1nnc(-c2ccccn2)o1)N1CCCc2[nH]cnc2C1c1cc2ccccc2cn1 (centres unmarked) , what is its reported AC50?
Key: 1 to 5 µM

Exercise: Given the entry CC1CN(C(=O)c2nnc(N3CC(F)C3)o2)C(c2cc3ccccc3cn2)c2nc[nH]c21 [(4S, 7S) diastereomer of 3-[5-[5-(3-fluoroazetidin-1-yl)-1,3] , report its measured AC50.
Key: > 5 µM

Exercise: I'd like to know its AC50. The compound in question is O=C(Cc1cnco1)N1CCc2[nH]cnc2C1c1cn2ccccc2n1 (centres unmarked)
Key: > 5 µM

Exercise: GET /values?readout=AC50&item= O=C(c1nnc(CCN2CCOCC2)o1)N1CCc2[nH]cnc2C1c1ccc2ccccc2n1 (centres unmarked)
Key: > 5 µM

Exercise: // returns reported AC50 for input Cc1nc(NC2CC2)oc1C(=O)N1CCc2[nH]cnc2C1c1ccc2ccccc2n1 (centres unmarked)
Key: > 5 µM

Exercise: Entry O=C(Cc1cncs1)N1CCc2[nH]cnc2C1c1cn2ccccc2n1 (centres unmarked) has what AC50?
Key: > 5 µM

###

Biological target: human PAH with the R408W mutation (Homo sapiens, UniProt P00439, R408W)
Construct: expressed in transfected cells
Sequence (P00439 1-452 R408W): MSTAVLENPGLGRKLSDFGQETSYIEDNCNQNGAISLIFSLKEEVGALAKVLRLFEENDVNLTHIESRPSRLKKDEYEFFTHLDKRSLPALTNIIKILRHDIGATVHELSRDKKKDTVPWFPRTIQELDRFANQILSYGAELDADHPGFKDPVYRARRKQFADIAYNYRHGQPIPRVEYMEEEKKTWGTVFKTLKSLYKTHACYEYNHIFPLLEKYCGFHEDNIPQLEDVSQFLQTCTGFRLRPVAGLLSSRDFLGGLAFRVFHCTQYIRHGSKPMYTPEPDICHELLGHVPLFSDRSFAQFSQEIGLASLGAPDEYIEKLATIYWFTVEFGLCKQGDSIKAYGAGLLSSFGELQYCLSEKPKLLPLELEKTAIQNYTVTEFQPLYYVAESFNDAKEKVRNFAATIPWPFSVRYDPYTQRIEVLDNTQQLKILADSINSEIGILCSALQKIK
Experiment: Cell Based Phenylalanine Flux Assay
Conditions: A375 R408W cells, 24 hrs with compound, then 20 μM sepiapterin and 800 μM 13C9,15N-Phenylalanine for 4 hours; 13C-Tyrosine by LC-MS; average where tested multiple times; read-out: AC50
# key: entry, value: AC50

Known results for compounds:
Compound: O=C(C1CN(CC(F)(F)F)C1)N1CCc2[nH]cnc2C1c1ccc2ccccc2n1 (centres unmarked)
Tgt: human PAH with the R408W mutation (Homo sapiens, UniProt P00439, R408W)
AC50: > 5 µM
--
Compound: Cc1nc(C(C)(C)O)oc1C(=O)N1CCc2[nH]cnc2C1c1cn2ccccc2n1 (centres unmarked)
Tgt: human PAH with the R408W mutation (Homo sapiens, UniProt P00439, R408W)
AC50: 1 to 5 µM
--
Compound: O=C(Cc1coc(C(F)F)n1)N1CCc2nc[nH]c2C1c1cn2ccccc2n1 (centres unmarked)
Tgt: human PAH with the R408W mutation (Homo sapiens, UniProt P00439, R408W)
AC50: 1 to 5 µM
--
Compound: CC(C)(F)c1ccc2c(C(=O)N3CCc4[nH]cnc4C3c3ccc4ccccc4n3)cnn2c1 (centres unmarked)
Tgt: human PAH with the R408W mutation (Homo sapiens, UniProt P00439, R408W)
AC50: 1 to 5 µM

Exercise: AC50 lookup needed for Cc1nc(N)oc1C(=O)N1CCc2[nH]cnc2C1c1ccc2ccccc2n1 (centres unmarked) , thanks.
Key: > 5 µM

Exercise: Requested read-out: AC50. Entry: Cc1nc(-c2ccccn2)oc1C(=O)N1CCc2[nH]cnc2C1c1cn2ccccc2n1 (centres unmarked)
Key: > 5 µM

Exercise: Query (compound): Cc1ncoc1C(=O)N1CC2(CC2)c2[nH]cnc2[C@H]1c1ccc2ccccc2n1 (single isomer, unassigned) ; field requested: AC50
Key: > 5 µM

Exercise: Entry Cn1ccc(-c2nnc(C(=O)N3CCc4[nH]cnc4C3c3cc4ccccc4nn3)o2)n1 (centres unmarked) has what AC50?
Key: 1 to 5 µM

Exercise: For the compound shown here, CC1CN(C(=O)c2nnc(N3CCOCC3)o2)C(c2cc3ccccc3cn2)c2nc[nH]c21 (centres unmarked) , give the reported AC50.
Key: > 5 µM

Exercise: Name the recorded AC50 for O=C(c1oc(C2CC2)nc1C(F)F)N1CCc2[nH]cnc2C1c1ccc2ccccc2n1 (centres unmarked) .
Key: 1 to 5 µM

Exercise: # lookup: AC50 of CC(C)(O)c1nc(C2CC2)c(C(=O)N2CCc3[nH]cnc3C2c2cn3ccccc3n2)o1 (centres unmarked)
Key: 1 to 5 µM

Exercise: // returns reported AC50 for input O=C(c1nnc(N2CCC(F)CC2)o1)N1CCc2[nH]cnc2C1c1ccc2ccccc2n1 (centres unmarked)
Key: 1 to 5 µM

Exercise: Would you kindly share the measured AC50 for CC(C)(O)c1ncc(C(=O)N2CCc3[nH]cnc3C2c2cn3ccccc3n2)s1 (centres unmarked) ?
Key: 1 to 5 µM

Exercise: Recorded AC50 for Cc1nnc(CC(=O)N2CCc3[nH]cnc3C2c2cn3ccccc3n2)s1 (centres unmarked) , please?
Key: > 5 µM

Exercise: Param item = Cc1ncc(CC(=O)N2CCc3[nH]cnc3C2c2cn3ccccc3n2)o1 (centres unmarked) ; retrieve measured AC50.
Key: > 5 µM

Exercise: Given O=C(c1nnc(NC2CC2)o1)N1CCc2[nH]cnc2C1c1ccc2ccccc2n1 (centres unmarked) , state its recorded AC50.
Key: 1 to 5 µM

Exercise: Need AC50, item O=C(CCc1ccccc1)N1CCc2[nH]cnc2C1c1cn2ccccc2n1 (centres unmarked)
Key: 1 to 5 µM

Exercise: Requested field: AC50. Item: O=C(N1CCc2[nH]cnc2C1c1cn2ccccc2n1)C(F)(F)C1(O)CCC1 (centres unmarked)
Key: 1 to 5 µM
